Cited source: paper PMC12416549

- TEST SYSTEM: T1, TNFR1 (Homo sapiens, UniProt P19438)
- T1 chain: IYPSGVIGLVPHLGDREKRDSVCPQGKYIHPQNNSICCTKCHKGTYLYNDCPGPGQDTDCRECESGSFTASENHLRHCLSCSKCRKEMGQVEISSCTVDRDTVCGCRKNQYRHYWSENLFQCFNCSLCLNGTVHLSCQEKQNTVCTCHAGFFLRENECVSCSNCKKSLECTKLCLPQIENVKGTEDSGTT
- METHOD NOTES: yeast display SC50
// assign class 1 if apparent Kd (screen) falls strictly below 0.9 nM, else class 0 (ties count as class 0)

binder="D56H (designed binder) MTLQELLREEALRRAEAEAFRYALELLAEKFPEQKEYLLDLAEEIESQIRSLSGVHVEDVRKFLDKEWAWVKELLAEHPAELAEVEAARAARLAELRAEVEAKVAA" answer_label="class 0"
binder="A42T (designed binder) MTLQELLREEALRRAEAEAFRYALELLAEKFPEQKEYLLDLTEEIESQIRSLSGVDVEDVRKFLDKEWAWVKELLAEHPAELAEVEAARAARLAELRAEVEAKVAA" answer_label="class 0"
binder="R61Q (designed binder) MTLQELLREEALRRAEAEAFRYALELLAEKFPEQKEYLLDLAEEIESQIRSLSGVDVEDVQKFLDKEWAWVKELLAEHPAELAEVEAARAARLAELRAEVEAKVAA" answer_label="class 1"
binder="M1F (designed binder) FTLQELLREEALRRAEAEAFRYALELLAEKFPEQKEYLLDLAEEIESQIRSLSGVDVEDVRKFLDKEWAWVKELLAEHPAELAEVEAARAARLAELRAEVEAKVAA" answer_label="class 1"
binder="E5G (designed binder) MTLQGLLREEALRRAEAEAFRYALELLAEKFPEQKEYLLDLAEEIESQIRSLSGVDVEDVRKFLDKEWAWVKELLAEHPAELAEVEAARAARLAELRAEVEAKVAA" answer_label="class 1"
binder="A80S (designed binder) MTLQELLREEALRRAEAEAFRYALELLAEKFPEQKEYLLDLAEEIESQIRSLSGVDVEDVRKFLDKEWAWVKELLAEHPSELAEVEAARAARLAELRAEVEAKVAA" answer_label="class 1"
binder="L74K (designed binder) MTLQELLREEALRRAEAEAFRYALELLAEKFPEQKEYLLDLAEEIESQIRSLSGVDVEDVRKFLDKEWAWVKEKLAEHPAELAEVEAARAARLAELRAEVEAKVAA" answer_label="class 0"
binder="E99H (designed binder) MTLQELLREEALRRAEAEAFRYALELLAEKFPEQKEYLLDLAEEIESQIRSLSGVDVEDVRKFLDKEWAWVKELLAEHPAELAEVEAARAARLAELRAHVEAKVAA" answer_label="class 1"
binder="P79F (designed binder) MTLQELLREEALRRAEAEAFRYALELLAEKFPEQKEYLLDLAEEIESQIRSLSGVDVEDVRKFLDKEWAWVKELLAEHFAELAEVEAARAARLAELRAEVEAKVAA" answer_label="class 1"
binder="A88M (designed binder) MTLQELLREEALRRAEAEAFRYALELLAEKFPEQKEYLLDLAEEIESQIRSLSGVDVEDVRKFLDKEWAWVKELLAEHPAELAEVEAMRAARLAELRAEVEAKVAA" answer_label="class 1"
binder="R14A (designed binder) MTLQELLREEALRAAEAEAFRYALELLAEKFPEQKEYLLDLAEEIESQIRSLSGVDVEDVRKFLDKEWAWVKELLAEHPAELAEVEAARAARLAELRAEVEAKVAA" answer_label="class 1"
binder="Y37F (designed binder) MTLQELLREEALRRAEAEAFRYALELLAEKFPEQKEFLLDLAEEIESQIRSLSGVDVEDVRKFLDKEWAWVKELLAEHPAELAEVEAARAARLAELRAEVEAKVAA" answer_label="class 0"
binder="V57C (designed binder) MTLQELLREEALRRAEAEAFRYALELLAEKFPEQKEYLLDLAEEIESQIRSLSGVDCEDVRKFLDKEWAWVKELLAEHPAELAEVEAARAARLAELRAEVEAKVAA" answer_label="class 1"
binder="P79C (designed binder) MTLQELLREEALRRAEAEAFRYALELLAEKFPEQKEYLLDLAEEIESQIRSLSGVDVEDVRKFLDKEWAWVKELLAEHCAELAEVEAARAARLAELRAEVEAKVAA" answer_label="class 1"
binder="A11K (designed binder) MTLQELLREEKLRRAEAEAFRYALELLAEKFPEQKEYLLDLAEEIESQIRSLSGVDVEDVRKFLDKEWAWVKELLAEHPAELAEVEAARAARLAELRAEVEAKVAA" answer_label="class 1"
binder="T2L (designed binder) MLLQELLREEALRRAEAEAFRYALELLAEKFPEQKEYLLDLAEEIESQIRSLSGVDVEDVRKFLDKEWAWVKELLAEHPAELAEVEAARAARLAELRAEVEAKVAA" answer_label="class 1"
